Source of measurements: paper PMC11207571

- Study Target: human MDR1 (Homo sapiens)
- Sequence (P08183 whole entry): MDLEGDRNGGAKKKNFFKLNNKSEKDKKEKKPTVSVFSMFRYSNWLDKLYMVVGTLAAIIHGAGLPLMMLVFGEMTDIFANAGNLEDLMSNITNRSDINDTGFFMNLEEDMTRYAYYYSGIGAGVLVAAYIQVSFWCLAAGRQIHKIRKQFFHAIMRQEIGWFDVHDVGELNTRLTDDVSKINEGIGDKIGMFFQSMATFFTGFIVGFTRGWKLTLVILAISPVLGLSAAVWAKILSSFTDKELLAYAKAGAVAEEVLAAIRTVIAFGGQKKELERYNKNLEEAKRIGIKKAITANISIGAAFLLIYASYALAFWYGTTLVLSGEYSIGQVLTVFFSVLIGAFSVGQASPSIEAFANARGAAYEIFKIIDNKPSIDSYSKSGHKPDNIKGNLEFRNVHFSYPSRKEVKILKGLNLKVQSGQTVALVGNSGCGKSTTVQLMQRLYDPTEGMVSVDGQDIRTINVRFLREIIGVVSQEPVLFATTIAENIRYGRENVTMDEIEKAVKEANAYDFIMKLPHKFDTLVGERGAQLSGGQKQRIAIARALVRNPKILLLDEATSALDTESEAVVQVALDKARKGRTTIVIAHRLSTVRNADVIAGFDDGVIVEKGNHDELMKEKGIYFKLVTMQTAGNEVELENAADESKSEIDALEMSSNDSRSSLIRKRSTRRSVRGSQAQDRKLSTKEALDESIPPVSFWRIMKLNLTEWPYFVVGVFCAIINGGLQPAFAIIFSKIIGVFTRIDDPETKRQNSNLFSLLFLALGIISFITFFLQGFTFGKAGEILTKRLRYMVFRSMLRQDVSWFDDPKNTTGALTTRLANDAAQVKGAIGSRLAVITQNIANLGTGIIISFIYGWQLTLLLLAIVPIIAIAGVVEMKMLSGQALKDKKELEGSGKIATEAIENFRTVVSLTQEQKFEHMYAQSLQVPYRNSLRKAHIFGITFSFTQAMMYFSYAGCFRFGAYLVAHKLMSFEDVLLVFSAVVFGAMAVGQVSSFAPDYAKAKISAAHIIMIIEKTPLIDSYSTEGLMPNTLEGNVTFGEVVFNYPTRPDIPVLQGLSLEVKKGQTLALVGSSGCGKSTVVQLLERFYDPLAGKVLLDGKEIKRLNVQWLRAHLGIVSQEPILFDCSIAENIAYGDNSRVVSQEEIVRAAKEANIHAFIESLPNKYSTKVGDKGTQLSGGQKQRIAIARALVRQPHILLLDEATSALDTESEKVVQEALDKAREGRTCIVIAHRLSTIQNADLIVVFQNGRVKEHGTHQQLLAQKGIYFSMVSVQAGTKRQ
- Method Description: Inhibition of 3H-digoxin or 3H-quinidine bidirectional transport in hMDR1 cells
- Details: Inhibition of quinidine transport IC50±SD, hMDR1, probe 3H-quinidine 1 µM, 60 min; IC50 from ER
Exercise: for every item that follows, state its recorded IC50.
Numbers only, in nM.

Solved entries (count: 4):
CCCc1nc2c(C)cc(-c3nc4ccccc4n3C)cc2n1Cc1ccc(-c2ccccc2C(=O)O)cc1 [Telmisartan] | 1810
CN(C)C(=O)C(CCN1CCC(O)(c2ccc(Cl)cc2)CC1)(c1ccccc1)c1ccccc1 [Loperamide] | 4750
Cc1ccccc1C(=O)Nc1ccc(C(=O)N2CCCC(O)c3cc(Cl)ccc32)c(C)c1 (stereo not shown) [Tolvaptan] | 1280
COC(=O)C1=C(C)NC(C)=C(C(=O)OC(C)C)C1c1cccc2nonc12 (stereo not shown) [Isradipine] | 2070

Now examine the next entry.
Look up IC50 with human MDR1 (Homo sapiens) for this molecule: COc1ccccc1OCCNCC(O)COc1cccc2[nH]c3ccccc3c12 (stereo not shown) [Carvedilol]
410
